# testedSystem: α1C Human Adrenergic Receptor (Homo sapiens, UniProt P35348)
# Construct: The entire coding region of α1C (1401 bp); expressed in transfected cells
# Sequence (P35348 1-466): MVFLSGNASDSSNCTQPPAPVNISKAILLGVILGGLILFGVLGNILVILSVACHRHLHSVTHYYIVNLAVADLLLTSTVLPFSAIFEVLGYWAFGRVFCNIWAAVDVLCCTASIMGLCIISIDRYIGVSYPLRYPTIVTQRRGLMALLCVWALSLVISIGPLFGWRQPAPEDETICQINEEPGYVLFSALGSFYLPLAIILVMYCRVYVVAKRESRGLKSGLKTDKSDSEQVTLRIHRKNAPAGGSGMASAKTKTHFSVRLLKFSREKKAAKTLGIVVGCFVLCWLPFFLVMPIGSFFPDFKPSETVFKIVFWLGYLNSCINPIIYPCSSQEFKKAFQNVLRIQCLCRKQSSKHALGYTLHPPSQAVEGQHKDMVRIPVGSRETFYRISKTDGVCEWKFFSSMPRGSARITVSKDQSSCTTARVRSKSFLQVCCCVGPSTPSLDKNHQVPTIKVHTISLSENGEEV
# measurementNotes: Radioligand binding, [3H]prazosin, cloned human α1C adrenergic receptor
# conditionsUsed: cloned human α1C receptor, LM(tk−) cell membranes
Is pKi alpha-1 1c at least 8? Then Criterion met. If not, Criterion not met.

Example cases with answers are listed next.
CCOC(=O)C1=C(CNCCCN2CCC(c3ccccc3)(c3ccccc3)CC2)NC(C)=C(C(=O)OC)C1c1ccc([N+](=O)[O-])cc1.Cl.O (centres unmarked); Criterion not met
CCC1=C(C(N)=O)C(c2ccc([N+](=O)[O-])cc2)C(C(=O)NC2CCN(CCc3c[nH]c4ccccc34)CC2)=CN1CC (centres unmarked) [Example 122]; Criterion not met
CNC(=O)C1=C(C)NC(C)=C(C(=O)NCCCN2CCC(c3ccccc3)(c3ccccc3)CC2)C1c1ccc([N+](=O)[O-])cc1 (racemic) [(±)-119]; Criterion met
CCC1=C(C(N)=O)C(c2ccc([N+](=O)[O-])cc2)C(C(=O)NCCCN2CCC(c3ccccc3)(c3ccccc3)CC2)=C(CC)N1 (centres unmarked); Criterion met
CCC1=C(C(N)=O)C(c2ccc([N+](=O)[O-])cc2)C(C(=O)NC2CCN(CCc3c[nH]c4ccccc34)CC2)=CN1CC (centres unmarked) [Example 123]; Criterion met

Exam item: Entry CCC1=C(C(N)=O)C(c2ccc([N+](=O)[O-])cc2)C(C(=O)NCCCN2CCC(O)(c3ccccc3)CC2)=CN1CC.Cl.O (centres unmarked) : is its pKi alpha-1 1c no less than 8?
Marked response: Criterion met
